Tested on: HCT116 human colorectal carcinoma
Assay: Cell proliferation assay, HCT116
Format: cell-based
Details: HCT-116, HCT116, 72h exposure, CellTiter-Glo, read-out: EC50 in the cell proliferation assay, HCT116 cell line
pEC50: −log10 of the molar value.
Entries and their pEC50 values follow.

For orientation, consider the following solved cases.
# STRUCTURE AS SMILES, pEC50
measured = [
    ("O=C(NOCCO)c1cnc2[nH]ncc2c1Nc1ccc(I)cc1F", "> 6.30"),
    ("CC(C)(CO)ONC(=O)c1cnc2[nH]ncc2c1Nc1ccc(I)cc1F", "> 6.22"),
    ("O=C(NOC[C@H](O)CO)c1ccc2cnsc2c1Nc1ccc(I)cc1F", "> 6.30"),
    ("O=C(NOCCO)c1ccc2sncc2c1Nc1ccc(I)cc1F", "> 6.30"),
    ("CCONC(=O)c1ccc2[nH]ncc2c1Nc1ccc(I)cc1F", "> 6.30"),
    ("CSc1ccc(Nc2c(C(=O)NOC[C@H](O)CO)ccc3cnsc23)c(F)c1", "> 6.30"),
    ("C[C@H](O)CONC(=O)c1ccc2[nH]ncc2c1Nc1ccc(Br)cc1F", "> 6.30"),
    ("O=C(NOC[C@H](O)CO)c1ccc2[nH]ncc2c1Nc1ccc(I)cc1F", "> 6.30"),
]

# context switch: different molecule, same pEC50
// query Indicate its recorded pEC50; the molecule in question is O=C(NOCCO)c1ccc2cnsc2c1Nc1ccc(Br)cc1F
// result > 6.30
